B1: 3'-5' exoribonuclease 1, residues 65 to 114; numbered along this chain, Q8IV48 (parent)
chain: VYKEIAITNGCINRMSKEELRAKLSEFKLETRGVKDVLKKRLKNYYKKQK

variants of: B1; experiment: abundance fitness (aPCA) (normalised: wild type 0, dead -1); higher = more abundant; growth selection in yeast, the domain comes from the species named; conditions: Homo sapiens
Mark 1.0 for reported abundance fitness of -0.2 or greater; mark 0.0 for anything smaller.

Illustrative cases are given below, each with its answer.
# mutations, qualitative_label
measured = [
    ("K17N", 0.0),
    ("V1M", 1.0),
    ("E19N", 0.0),
]

State whether the measured abundance fitness reaches -0.2, counting equality as reaching it, for T8C 0.0

Could you please find out whether K23H has abundance fitness that meets -0.2 or exceeds it? 1.0

Record Y2K ; criterion: abundance fitness no lower than -0.2. Met? 1.0

# check: abundance fitness of I5R is greater than or equal to -0.2 1.0

For this variant, is measured abundance fitness -0.2 or higher? F27M 1.0

Entry source: the Human Domainome abundance scans (Beltran et al. 2025)
